- System: Mycobacterium tuberculosis Erdman (autoluminescent)
- method.summary: Einf, fitted maximum growth inhibition of three-drug combination (fraction); higher = stronger maximal inhibition
- experimental.conditions: in vitro model: cholesterol-high 0.2 mM; time point: constant (~7 days, model-specific)
quantity.measured: Einf
Give bare numbers.

CC(C)/N=c1\cc2n(-c3ccc(Cl)cc3)c3ccccc3nc-2cc1Nc1ccc(Cl)cc1 [clofazimine] + NC(=O)c1cnccn1 [pyrazinamide] + CO[C@H]1/C=C/O[C@@]2(C)Oc3c(C)c(O)c4c(O)c(c(/C=N/N5CCN(C6CCCC6)CC5)c(O)c4c3C2=O)NC(=O)/C(C)=C\C=C\[C@H](C)[C@H](O)[C@@H](C)[C@@H](O)[C@@H](C)[C@H](OC(C)=O)[C@@H]1C [rifapentine]	0.905
CC(=O)NC[C@H]1CN(c2ccc(N3CCOCC3)c(F)c2)C(=O)O1 [linezolid] + O=[N+]([O-])c1cn2c(n1)OC[C@@H](OCc1ccc(OC(F)(F)F)cc1)C2 [pretomanid] + NC(=O)c1cnccn1 [pyrazinamide]	0.902
CC[C@@H](CO)NCCN[C@@H](CC)CO [ethambutol] + CO[C@H]1/C=C/O[C@@]2(C)Oc3c(C)c(O)c4c(O)c(c(/C=N/N5CCN(C6CCCC6)CC5)c(O)c4c3C2=O)NC(=O)/C(C)=C\C=C\[C@H](C)[C@H](O)[C@@H](C)[C@@H](O)[C@@H](C)[C@H](OC(C)=O)[C@@H]1C [rifapentine] + CO[C@H]1/C=C/O[C@@]2(C)Oc3c(C)c(O)c4c(O)c(c(/C=N/N5CCN(C)CC5)c(O)c4c3C2=O)NC(=O)/C(C)=C\C=C\[C@H](C)[C@H](O)[C@@H](C)[C@@H](O)[C@@H](C)[C@H](OC(C)=O)[C@@H]1C [rifampicin]	0.947

Hello, I would appreciate it if you could give Einf for each entry below.
1. COc1nc2ccc(Br)cc2cc1[C@@H](c1ccccc1)[C@@](O)(CCN(C)C)c1cccc2ccccc12 [bedaquiline] + NNC(=O)c1ccncc1 [isoniazid] + CC(=O)NC[C@H]1CN(c2ccc(N3CCOCC3)c(F)c2)C(=O)O1 [linezolid]
2. CC[C@@H](CO)NCCN[C@@H](CC)CO [ethambutol] + O=[N+]([O-])c1cn2c(n1)OC[C@@H](OCc1ccc(OC(F)(F)F)cc1)C2 [pretomanid] + CO[C@H]1/C=C/O[C@@]2(C)Oc3c(C)c(O)c4c(O)c(c(/C=N/N5CCN(C6CCCC6)CC5)c(O)c4c3C2=O)NC(=O)/C(C)=C\C=C\[C@H](C)[C@H](O)[C@@H](C)[C@@H](O)[C@@H](C)[C@H](OC(C)=O)[C@@H]1C [rifapentine]

1: 0.955; 2: 0.825
